Assay: In vivo pharmacokinetic experiment in CD-1 mice
Settings: male, mouse, iv, 3 mg/kg, i.v. 3 mpk, plasma
Experimental: This experiment aims to investigate the pharmacokinetic properties of the compounds of the present disclosure administrated by oral and intravenous injection in CD-1 mice. The test compound was mixed with 10% dimethyl sulfoxide+90% (10% hydroxypropyl-β-cyclodextrin (HP-β-CD) aqueous solution), vortexed, and sonicated to prepare 0.6, 3.0, and 10.0 mg/mL clear solutions, respectively. […]

{"compound": "C#Cc1c(F)ccc2cc(N)cc(-c3ncc4c(N5CC6CCC(C5)N6)nc(OC[C@@]56CC(=C)CN5C[C@@H]5C[C@@H]56)nc4c3F)c12 (single isomer, unassigned)", "unitAbbreviation": "h", "half-life": 9.3}

---

Assay: In vivo pharmacokinetic experiment in CD-1 mice
Details: male, mouse, po, 30 mg/kg, p.o. 30 mpk, plasma

{"compound": "C#Cc1c(F)ccc2cc(N)cc(-c3ncc4c(N5CC6CCC(C5)N6)nc(OC[C@@]56CC(=C)CN5C[C@@H]5C[C@@H]56)nc4c3F)c12 (single isomer, unassigned) [Compound 3]", "half-life, h": 5.41}

---

Assay: In vivo pharmacokinetic experiment in CD-1 mice
Settings: male, mouse, iv, 3 mg/kg, i.v. 3 mpk, plasma

{"compound": "C#Cc1c(F)ccc2cc(N)cc(-c3ncc4c(N5CC6CCC(C5)N6)nc(OC[C@@]56CC(=C)CN5C[C@@H]5C[C@@H]56)nc4c3F)c12 (single isomer, unassigned) [Compound 3]", "unitAbbreviation": "µM·h", "AUC(0-t)": 1.56}

---

Assay: In vivo pharmacokinetic experiment in CD-1 mice
Conditions: male, mouse, po, 100 mg/kg, p.o. 100 mpk, plasma
valueKind: half-life

{"molecule": "C#Cc1c(F)ccc2cc(N)cc(-c3ncc4c(N5CC6CCC(C5)N6)nc(OC[C@@]56CC(=C)CN5C[C@@H]5C[C@@H]56)nc4c3F)c12 (single isomer, unassigned) [Compound 3]", "valueKind": "half-life", "testResult": "4.24 h"}

---

Test: In vivo pharmacokinetic experiment in CD-1 mice
Settings: male, mouse, po, 100 mg/kg, p.o. 100 mpk, plasma

{"molecule": "C#Cc1c(F)ccc2cc(N)cc(-c3ncc4c(N5CC6CCC(C5)N6)nc(OC[C@@]56CC(=C)CN5C[C@@H]5C[C@@H]56)nc4c3F)c12 (single isomer, unassigned)", "AUC(0-inf) [µM·h]": 13.3}

---

Assay: In vivo pharmacokinetic experiment in CD-1 mice
Settings: male, mouse, iv, 3 mg/kg, i.v. 3 mpk, plasma

{"molecule": "C#Cc1c(F)ccc2cc(N)cc(-c3ncc4c(N5CC6CCC(C5)N6)nc(OC[C@@]56CC(=C)CN5C[C@@H]5C[C@@H]56)nc4c3F)c12 (single isomer, unassigned)", "unitAbbreviation": "L/kg", "Vd": 41.1}

---

Experiment: In vivo pharmacokinetic experiment in CD-1 mice
Settings: male, mouse, po, 30 mg/kg, p.o. 30 mpk, plasma

{"molecule": "C#Cc1c(F)ccc2cc(N)cc(-c3ncc4c(N5CC6CCC(C5)N6)nc(OC[C@@]56CC(=C)CN5C[C@@H]5C[C@@H]56)nc4c3F)c12 (single isomer, unassigned) [Compound 3]", "Cmax / nM": 439}
